Cited source for all entries: patent US12493040B2

system: RNAi-treated eri-1 (mg366) nematodes; test: RNAi screening of olfactory receptor genes: chemotaxis assay of RNAi-treated nematodes to odorants; format: in vivo, Caenorhabditis elegans; details: srh-28 RNAi-treated nematodes; low concentration of attractant
# Lookup of reported chemotaxis index keyed by entry
Hey, just send me the number, nothing else.

Some compounds with recorded chemotaxis index:
c1cnccn1 [pyrazine]: 0.23
Cc1nc(C)c(C)s1 [trimethylthiazole]: 0.92
CCC(C)=O [butanone]: 0.55

# next compound below
Exam item: Dear colleague, I am looking for the recorded chemotaxis index of the following compound: CCC(=O)C(C)=O [pentanedione]
Marked response: 0.22

###

test system: RNAi-treated eri-1 (mg366) nematodes; assay: RNAi screening of olfactory receptor genes: chemotaxis assay of RNAi-treated nematodes to odorants; format: in vivo, Caenorhabditis elegans; settings: srh-41 RNAi-treated nematodes; repellent or high concentration of attractant
Reported Property: chemotaxis index
Hey, just send me the number, nothing else.

Some molecules with recorded chemotaxis index:
CCCCCCCC(C)=O: −0.62
O=Cc1ccccc1: −0.89
CC(C)CCO: −0.56
CC(=O)C(C)=O: −0.21

# next molecule below
Exam item: Dear colleague, I am looking for the recorded chemotaxis index of the following molecule: CCCCCCCCO
Marked response: −0.80
